- System: H460
- method: trypan blue exclusion assay, H460 cells
- Assay type: cell-based
- condition-info: NCI-H460, H460 human non-small cell lung cancer

smiles: O=c1[nH]c(-c2cccc3ccccc23)nc2ccc(N3CCOCC3)cc12
IC50: 0.432 µM
//
smiles: CN(C)c1ccc2nc(-c3cccc4ccccc34)[nH]c(=O)c2c1
IC50: 0.506 µM
//
smiles: COc1ccc2nc(-c3cccc4ccccc34)[nH]c(=O)c2c1
IC50: 0.079 µM
//
smiles: COc1ccc2nc(-c3c[nH]c4ccccc34)[nH]c(=O)c2c1
IC50: > 10 µM
//
smiles: O=c1[nH]c(-c2c[nH]c3ccccc23)nc2ccc(N3CCCC3)cc12
IC50: 8.81 µM
//
smiles: O=c1[nH]c(-c2cccc3ccccc23)nc2ccc(N3CCCCC3)cc12
IC50: 0.376 µM

* * *

- Test system: CH27
- method: trypan blue exclusion assay, CH27 cells
- Format: cell-based
- condition-info: CH27 human lung squamous carcinoma
Some compounds, each annotated with its measured IC50.
result-type: IC50 (µM)

compound: O=c1[nH]c(-c2c[nH]c3ccccc23)nc2ccc(N3CCOCC3)cc12 [Compound 30]
qualifier-sign: >
recorded-number: 10
--
compound: CN(C)c1ccc2nc(-c3cccc4ccccc34)[nH]c(=O)c2c1 [Compound 20]
qualifier-sign: =
recorded-number: 0.447
--
compound: O=c1[nH]c(-c2csc3ccccc23)nc2ccc(N3CCCCC3)cc12 [Compound 28]
qualifier-sign: >
recorded-number: 10
--
compound: CN(C)c1ccc2nc(-c3c[nH]c4ccccc34)[nH]c(=O)c2c1 [Compound 21]
qualifier-sign: >
recorded-number: 10
--
compound: O=c1[nH]c(-c2c[nH]c3ccccc23)nc2ccc(N3CCCC3)cc12 [Compound 24]
qualifier-sign: =
recorded-number: 8.7
--
compound: O=c1[nH]c(-c2c[nH]c3ccccc23)nc2ccc(N3CCCCC3)cc12 [Compound 27]
qualifier-sign: >
recorded-number: 10
--
compound: COc1ccc2nc(-c3cccc4ccccc34)[nH]c(=O)c2c1 [Compound 17]
qualifier-sign: =
recorded-number: 0.089
--
compound: COc1ccc2nc(-c3c[nH]c4ccccc34)[nH]c(=O)c2c1 [Compound 18]
qualifier-sign: >
recorded-number: 10
--
compound: O=c1[nH]c(-c2cccc3ccccc23)nc2ccc(N3CCOCC3)cc12 [Compound 29]
qualifier-sign: =
recorded-number: 0.597

* * *

Some molecules, each annotated with its measured melting point.

smiles: O=c1[nH]c(-c2csc3ccccc23)nc2ccc(N3CCCCC3)cc12
melting point: > 300 °C

smiles: COc1ccc2nc(-c3c[nH]c4ccccc34)[nH]c(=O)c2c1
melting point: 311 to 312 °C

smiles: CN(C)c1ccc2nc(-c3csc4ccccc34)[nH]c(=O)c2c1
melting point: > 300 °C

* * *

- System: CH27
- method: trypan blue exclusion assay, CH27 cells
- Format: cell-based
- condition-info: CH27 human lung squamous carcinoma
pIC50: −log10 of the molar value.
result-type: pIC50

smiles: O=c1[nH]c(-c2csc3ccccc23)nc2ccc(N3CCCC3)cc12
result: < 5.00
//
smiles: O=c1[nH]c(-c2cccc3ccccc23)nc2ccc(N3CCCCC3)cc12
result: 6.44
//
smiles: O=c1[nH]c(-c2cccc3ccccc23)nc2ccc(N3CCCC3)cc12
result: 7.28
//
smiles: O=c1[nH]c(-c2csc3ccccc23)nc2ccc(N3CCOCC3)cc12
result: < 5.00
//
smiles: COc1ccc2nc(-c3csc4ccccc34)[nH]c(=O)c2c1
result: < 5.00
//
smiles: CN(C)c1ccc2nc(-c3csc4ccccc34)[nH]c(=O)c2c1
result: < 5.00

* * *

Some compounds, each annotated with its measured IC50.
- System: U87 human glioma cell lines
- method: MTS cell viability assay, U87 glioma cells
- Type: cell-based
- condition-info: 48 hours, mean±SEM, n=3
result-type: IC50 (nM)

smiles: O=c1[nH]c(-c2cccc3ccccc23)nc2ccc(N3CCCC3)cc12
tgt: U87 human glioma cell lines
qualifier-sign: =
recorded-number: 54
//
smiles: O=c1[nH]c(-c2csc3ccccc23)nc2ccc(N3CCCC3)cc12
tgt: U87 human glioma cell lines
qualifier-sign: >
recorded-number: 1000
//
smiles: O=c1[nH]c(-c2cccc3ccccc23)nc2ccc(N3CCCCC3)cc12
tgt: U87 human glioma cell lines
qualifier-sign: =
recorded-number: 540

* * *

Some compounds, each annotated with its measured pIC50.
- System: H460
- method: trypan blue exclusion assay, H460 cells
- Assay type: cell-based
- condition-info: NCI-H460, H460 human non-small cell lung cancer
pIC50: −log10 of the molar value.
result-type: pIC50

smiles: O=c1[nH]c(-c2c[nH]c3ccccc23)nc2ccc(N3CCCCC3)cc12
result: 5.16

smiles: CN(C)c1ccc2nc(-c3c[nH]c4ccccc34)[nH]c(=O)c2c1
result: < 5.00

smiles: O=c1[nH]c(-c2csc3ccccc23)nc2ccc(N3CCCCC3)cc12
result: < 5.00

smiles: O=c1[nH]c(-c2csc3ccccc23)nc2ccc(N3CCCC3)cc12
result: < 5.00

smiles: O=c1[nH]c(-c2c[nH]c3ccccc23)nc2ccc(N3CCOCC3)cc12
result: < 5.00

smiles: O=c1[nH]c(-c2cccc3ccccc23)nc2ccc(N3CCCC3)cc12
result: 7.12

smiles: COc1ccc2nc(-c3csc4ccccc34)[nH]c(=O)c2c1
result: < 5.00

smiles: CN(C)c1ccc2nc(-c3csc4ccccc34)[nH]c(=O)c2c1
result: < 5.00

smiles: O=c1[nH]c(-c2csc3ccccc23)nc2ccc(N3CCOCC3)cc12
result: < 5.00

* * *

Some compounds, each annotated with its measured melting point.

compound: O=c1[nH]c(-c2csc3ccccc23)nc2ccc(N3CCOCC3)cc12 [Compound 31]
melting point: > 300 °C

compound: COc1ccc2nc(-c3csc4ccccc34)[nH]c(=O)c2c1 [Compound 19]
melting point: 289 to 290 °C

compound: O=c1[nH]c(-c2c[nH]c3ccccc23)nc2ccc(N3CCOCC3)cc12 [Compound 30]
melting point: > 300 °C

compound: CN(C)c1ccc2nc(-c3c[nH]c4ccccc34)[nH]c(=O)c2c1 [Compound 21]
melting point: > 300 °C

compound: O=c1[nH]c(-c2csc3ccccc23)nc2ccc(N3CCCC3)cc12 [Compound 25]
melting point: > 300 °C
